target: Ornithine decarboxylase (Mus musculus); test: Percent inhibition of the induction of ornithine decarboxylase at 1.7 nmol in mouse dorsal epidermis (ODC assay); format: functional
OBSERVED_PROPERTY: inhibition of control
Record the result as a number with its unit.

Examples from the recorded data:
SMILES_NOTATION: CC1=C(/C=C/C(C)=C/c2ccc(C(=O)O)o2)C(C)(C)CCC1
inhibition of control: 7%
//
SMILES_NOTATION: CC1=C(/C=C/C(C)=C\c2ccc(C(=O)O)cc2)C(C)(C)CCC1
inhibition of control: 33%
//
SMILES_NOTATION: CCOC(=O)c1ccc(/C=C(C)\C=C\C2=C(C)CCCC2(C)C)s1
inhibition of control: 35%
//
SMILES_NOTATION: CCOC(=O)c1ccc(/C=C(C)/C=C/C2=C(C)CCCC2(C)C)cn1
inhibition of control: 29%
//
SMILES_NOTATION: CC1=C(/C=C/C(C)=C/c2ccc(C(=O)O)cc2F)C(C)(C)CCC1
inhibition of control: 37%

Lookup: I'd like to know its inhibition of control. The compound in question is CC1=C(/C=C/C(C)=C(\F)c2ccc(C(=O)O)cc2)C(C)(C)CCC1
Found: 70%

Lookup: Would you mind telling me what inhibition of control value was observed for CC1=C(/C=C/C(C)=C/c2ccc(C(=O)O)s2)C(C)(C)CCC1 ?
Found: 42%

Lookup: Can you share its inhibition of control? I mean this compound: CCOC(=O)c1ccc(/C=C(C)/C=C/C2=C(C)CCCC2(C)C)c(F)c1
Found: 8%

Lookup: Please give the measured inhibition of control for this compound: CCOC(=O)c1ccc(/C=C(C)/C=C/C2=C(C)CCCC2(C)C)o1
Found: 9%

Lookup: // query inhibition of control value for entry CCOC(=O)c1ccc(/C=C(C)/C=C/C2=C(C)CCCC2(C)C)c(OC)c1
Found: 21%

----------
target: Ornithine decarboxylase (Mus musculus) (UniProt P00860); assay: Percent inhibition of the induction of ornithine decarboxylase at 1.7 nmol in mouse dorsal epidermis (ODC assay); type: functional
Sequence (P00860 whole entry): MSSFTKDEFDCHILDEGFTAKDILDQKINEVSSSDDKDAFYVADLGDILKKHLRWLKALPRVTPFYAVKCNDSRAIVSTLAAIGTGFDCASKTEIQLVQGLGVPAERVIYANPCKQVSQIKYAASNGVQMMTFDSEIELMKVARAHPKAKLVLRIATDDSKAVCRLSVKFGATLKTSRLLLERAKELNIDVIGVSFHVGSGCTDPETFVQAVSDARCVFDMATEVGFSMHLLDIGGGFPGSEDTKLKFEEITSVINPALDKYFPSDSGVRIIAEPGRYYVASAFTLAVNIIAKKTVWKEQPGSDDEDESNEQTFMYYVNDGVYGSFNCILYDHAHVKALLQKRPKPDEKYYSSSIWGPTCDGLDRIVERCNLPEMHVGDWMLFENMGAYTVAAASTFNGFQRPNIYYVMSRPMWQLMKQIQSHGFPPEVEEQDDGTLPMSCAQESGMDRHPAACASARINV
Known inhibition of control of a selection of compounds
Form entry: value (%) — number only.

SMILES_NOTATION: CC1=C(/C=C/C(C)=C/c2ccc(C(=O)O)cc2)C(C)(C)CCC1
TARGET_ENTITY: Ornithine decarboxylase (Mus musculus) (UniProt P00860)
OBS_VALUE: 62

Lookup: Quick check: inhibition of control on Ornithine decarboxylase (Mus musculus) (UniProt P00860), item COc1cc(C(=O)O)ccc1/C=C(C)/C=C/C1=C(C)CCCC1(C)C ?
Found: 9

Lookup: Record CCOC(=O)c1ccc(/C=C(C)/C=C/C2=C(C)CCCC2(C)C)s1 : what is its inhibition of control with Ornithine decarboxylase (Mus musculus) (UniProt P00860)?
Found: 67

Lookup: For Ornithine decarboxylase (Mus musculus) (UniProt P00860), provide inhibition of control of CCOC(=O)c1ccc(/C(F)=C(C)/C=C/C2=C(C)CCCC2(C)C)cc1 please.
Found: 56

----------
tested on: Cricetinae gen. sp.; experiment: Relative potency with respect to retinoic acid in hamster tracheal organ culture assay (TOC); format: functional, Cricetulus griseus, Trachea
# label = Fulfilled if Relative activity >= 3 else Not fulfilled

Previously resolved entries follow.
SMILES_NOTATION: CC1=C(/C=C/C(C)=C/c2ccc(C(=O)O)cc2F)C(C)(C)CCC1
CLASS_LABEL: Fulfilled

SMILES_NOTATION: CC1=C(/C=C/C(C)=C\c2ccc(C(=O)O)cc2)C(C)(C)CCC1
CLASS_LABEL: Not fulfilled

SMILES_NOTATION: CCOC(=O)c1ccc(/C=C(C)\C=C\C2=C(C)CCCC2(C)C)s1
CLASS_LABEL: Not fulfilled

Lookup: Does the compound CCOC(=O)c1ccc(/C(F)=C(C)\C=C\C2=C(C)CCCC2(C)C)cc1 have recorded Relative activity that is 3 or more?
Found: Not fulfilled

Lookup: Is reported Relative activity greater than or equal to 3 here: CCOC(=O)c1ccc(/C=C(C)/C=C/C2=C(C)CCCC2(C)C)cn1
Found: Not fulfilled

Lookup: Tell me whether Relative activity is at least 3 here: CCOC(=O)c1ccc(/C=C(C)/C=C/C2=C(C)CCCC2(C)C)c(F)c1
Found: Fulfilled

Lookup: Does Relative activity meet or surpass 3 for CCOC(=O)c1ccc(/C=C(C)/C=C/C2=C(C)CCCC2(C)C)c(OC)c1 ?
Found: Fulfilled

Lookup: Threshold query (Relative activity >= 3) on CC1=C(/C=C/C(C)=C/c2ccc(C(=O)O)s2)C(C)(C)CCC1
Found: Not fulfilled
